protocol text: binders of probe aFGF2 on microarray, primary screen, stem cell growth factor project, biochemical, small-molecule microarray, fluorescence 635/667 (AID 1067);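 note: measures binding of biotinylated aFGF2 protein to printed compounds on slides; z-score merges feature fluorescence and signal-to-noise across triplicate slides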
measurement parameters: higher = more signal
# if value of composite z-score reaches -0.07, tag MET; if it stays below, tag NOT MET

# molecule, assigned category
measured = [
    ("O=C1[C@H]2[C@H]3[C@H](O)[C@H](O)CC(=NOC[C@@H](O)COCc4ccco4)[C@@H]3CC[C@H]2C(=O)N1Cc1ccccc1", "NOT MET"),
    ("COC(=O)CC=C[C@@H](C)[C@@H](C=NOC(C)CN1CCCCc2nc(C)c(C)cc21)NS(=O)(=O)c1ccc(C)cc1 (some centres not stated)", "MET"),
    ("CC(CCN1CCc2nc(-c3ccccc3)c(-c3ccccc3)cc2C1)=NOC(C)CN1CCCc2nc(C)c(C)cc21 (configuration not stated)", "MET"),
    ("O=C(NN=C1C[C@@H](O)[C@@H](O)[C@@H]2[C@@H]3C(=O)N(Cc4ccc5c(c4)OCO5)C(=O)[C@@H]3CC[C@@H]12)OCc1ccccc1", "MET"),
    ("COC(=O)[C@H](CCSC)NC(=O)CC=C[C@@H](C)CO", "NOT MET"),
    ("CCOC(=O)CCN1C(=O)[C@H]2[C@H]3[C@H](O)[C@H](O)CC(=NO[C@@H]4O[C@H](CO)[C@@H](O)[C@H](O)[C@H]4O)[C@@H]3CC[C@H]2C1=O", "NOT MET"),
]

====

target system: Torsin-1A (Homo sapiens)
protocol text: small-molecule binders of mutant TOR1A in lysate, primary screen, cell lysate, small-molecule microarray, COS7 lysate, 635/667 nm fluorescence (AID 1150);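 note: score pools 667 nm emission and signal to noise measuring lysate protein binding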
measurement parameters: COS7 hTOR1A mutant lysate, 635 nm fluorescence, higher = more signal
# composite z-score >= 0.2 gives fulfilled, anything below gives not fulfilled

# compound, assigned category
rows = [
    ("COc1ccc(O[C@H]2C=C[C@@H](c3ccccc3)O[C@@H]2CON=C(C)CCN2CCCc3nc(C)c(C)cc32)cc1", "fulfilled"),
    ("COc1ccc(O[C@H]2C=C[C@@H](c3ccccc3)O[C@@H]2COC(=O)NCc2cccc3ccccc23)cc1", "fulfilled"),
    ("COC(=O)[C@H](C)NC(=O)CCC1CC(OC(=O)NCCc2ccc(F)cc2)CC2(CCCC(COC(=O)NCCOc3ccccc3)O2)O1 (stereo partly specified)", "fulfilled"),
    ("CC(=O)OC[C@H]1O[C@H](CC=NO[C@@H](C)c2cc(-c3c(C)cc(C)cc3C)no2)C=C[C@@H]1OC(C)=O", "not fulfilled"),
    ("CO[C@@H]1COC(=O)CC=C[C@H](C)[C@H](OC)COC(=O)[C@@H]2CCCN2C(=O)CC=C[C@H]1C", "fulfilled"),
    ("CCN1C(=O)[C@H]2[C@H]3[C@H](O)[C@H](O)CC(=NNC(=O)OCc4ccccc4)[C@H]3CC[C@H]2C1=O", "fulfilled"),
    ("CC(=O)OC[C@H]1O[C@H](C#CCC2CCCCC2)C=C[C@@H]1OC(C)=O", "fulfilled"),
    ("CCc1cc2c(nc1CC)CCN(CCC(C)=NOC(C)CN1CCCCc3nc(C)c(C)cc31)C2 (stereo unspecified)", "fulfilled"),
    ("CC(C)(C)N1C(=O)[C@H]2[C@H]3[C@H](O)[C@H](O)CC(=NNC(=O)OCc4ccccc4)[C@@H]3CC[C@H]2C1=O", "fulfilled"),
    ("CCOC(=O)[C@H](Cc1ccccc1)NC(=O)CCC1CC(OC(=O)NCc2ccc3c(c2)OCO3)CC2(CCCC(COC(=O)NCCCN3CCCC3=O)O2)O1 (stereo partly specified)", "not fulfilled"),
    ("O=C1CCCC=C1C(O)C1CCCCC1 (stereo unspecified)", "fulfilled"),
    ("CC(C)CON=C1C[C@@H](O)[C@@H](O)[C@@H]2[C@@H]3C(=O)N([C@@H](C)c4ccccc4)C(=O)[C@@H]3CC[C@@H]12", "not fulfilled"),
    ("CCc1cc2c(nc1CC)CCN(CCC(C)=NOC[C@@H](C)[C@H](OCc1ccccc1)C(C)C)C2", "not fulfilled"),
    ("CO[C@H]1COC(=O)[C@H](C)COC(=O)[C@@H](OCc2ccccc2)C=C[C@@H]1C", "fulfilled"),
    ("O=C1C[C@@H](O)[C@@H](O)[C@@H]2[C@@H]3C(=O)N(c4ccc(F)cc4F)C(=O)[C@@H]3CC[C@H]12", "fulfilled"),
]

====

protocol text: small-molecule microarray binders of probe aWnt5a, primary screen, biochemical, biotinylated probe, 635/667 nm fluorescence (AID 1113);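 note: score merges 667 nm fluorescence intensity with signal-to-noise per printed feature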
measurement parameters: higher = more signal
If the reported composite z-score equals or exceeds -0.2, assign satisfied. If not, assign not satisfied.

# compound, assigned category
measured = [
    ("C[C@@H]1CC[C@H]2C(=O)O[C@@H](COc3ccc(C(C)(C)C)cc3)CN2[C@H]1c1ccc(Br)cc1", "satisfied"),
    ("CSCC[C@@H]1NC(=O)CC=C[C@@H](C)COC(=O)[C@H](C)COC1=O", "not satisfied"),
    ("CC(CCN1CCCCc2nc(C)c(C)cc21)=NO[C@@H](C)c1cc(-c2c(C)cc(C)cc2C)no1", "satisfied"),
    ("CO[C@@H]1C=CCC(=O)N[C@@H](C)C(=O)OC[C@@H](NS(=O)(=O)c2ccc(C)cc2)[C@H](C)C=CCC(=O)OC[C@H]1C", "satisfied"),
    ("COc1ccc(COC(=O)NN=C2C[C@@H](O)[C@@H](O)[C@@H]3[C@@H]4C(=O)N(C[C@@H]5CCCO5)C(=O)[C@@H]4CC[C@H]23)cc1", "satisfied"),
    ("COC(=O)[C@@H]1CC[C@H](C)[C@@H](c2ccc(Br)cc2)N1", "satisfied"),
    ("COCCNC(=O)OCC1CCCC2(CC(OC(=O)NCc3cccc4ccccc34)CC(CCC(=O)N[C@@H](C)C(=O)OC)O2)O1 (stereo partly specified)", "satisfied"),
    ("C[C@H]1CC[C@H]2C(=O)OC(COc3ccc(C(C)(C)C)cc3)CN2[C@@H]1c1ccc(Br)cc1 (stereo partly specified)", "not satisfied"),
    ("O=C1[C@H]2[C@H]3[C@H](O)[C@H](O)CC(=NOC[C@@H](O)COCc4ccco4)[C@@H]3CC[C@H]2C(=O)N1Cc1ccccc1", "satisfied"),
    ("CC(C)=NO[C@H](C)c1cn([C@@H]2COC[C@H]2O)nn1", "satisfied"),
    ("CON=C[C@@H](OC)[C@H](C)C=CCC(=O)OC", "satisfied"),
    ("CC(C)=CCCC(C)=CCON=C1[C@H]2CCn3c(=O)n(-c4ccccc4)c(=O)n3[C@H]2[C@H](O)[C@@H]2O[C@H]12", "satisfied"),
    ("CCCNC(=O)OC[C@H]1O[C@H](CCON=C2c3cc(OC)ccc3O[C@H](c3cccc(OC)c3)[C@H]2O)C=C[C@@H]1Oc1ccc(OC)cc1", "satisfied"),
    ("CC(=O)OC[C@H]1O[C@H](CC=NOC[C@@H](O)COCc2ccco2)C=C[C@@H]1OC(C)=O", "satisfied"),
    ("CO[C@H]1COC(=O)[C@H](C)COC(=O)[C@H](C)NC(=O)CC=C[C@H]1C", "satisfied"),
    ("CC(CCC(=O)OC[C@H]1O[C@H](C#Cc2ccccc2)C=C[C@@H]1Oc1ccc(C)cc1)=NO[C@@H](C)c1cc(-c2c(C)cc(C)cc2C)no1", "not satisfied"),
]

====

Recorded z-score for the following compounds
protocol text: E. coli DRC41 culture turbidity changes, primary screen, E. coli filamentation inducer project, strain DRC41, OD650, 48 h (AID 1152);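 note: E. coli MC1000 strain DRC41 lacking acrAB efflux pump and sulA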
measurement parameters: E. coli DRC41 (acrAB sulA), higher = more signal, called active from +8 up or from −8 down
assay endpoint: z-score

# compound, assay endpoint, recorded number
measured = [
    ("COC(OC)[C@@H](C)[C@H](OC)[C@@H](C)[C@H](OC)c1ccccc1", "z-score", 0.215),
    ("O=C1C=C[C@@H](O)[C@@H]2[C@@H]3C(=O)N(C4CCCCC4)C(=O)[C@@H]3CC[C@@H]12", "z-score", -0.188),
    ("O=C(NN=C1C[C@@H](O)[C@@H](O)[C@@H]2[C@@H]3C(=O)N(c4ccc(F)cc4F)C(=O)[C@@H]3CC[C@H]12)OCc1ccccc1", "z-score", 0.342),
    ("CC(C)C(=O)N[C@H]1CCCN1C(=O)C=Cc1ccccc1", "z-score", -1.05),
    ("COC(=O)CC=C[C@@H](C)[C@@H](C=NOC[C@@H](O)[C@H]1O[C@@H]2OC(C)(C)O[C@@H]2[C@H]1O)OC", "z-score", 0.29),
    ("CCCNC(=O)OC[C@H]1O[C@H](CCON=C2C[C@@H](O)[C@@H](O)[C@@H]3[C@@H]4C(=O)N(CC)C(=O)[C@@H]4CC[C@@H]23)C=C[C@@H]1Oc1ccc(OC)cc1", "z-score", 0.599),
    ("CCOC(=O)[C@H](Cc1ccccc1)NC(=O)CCC1CC(OC(=O)NCc2ccc3c(c2)OCO3)CC2(CCCC(COC(=O)NCCOc3ccccc3)O2)O1 (stereo partly specified)", "z-score", 0.0897),
    ("C[C@@H]1CC[C@@H](C(=O)O)N[C@H]1c1cccc(N2CCOCC2)c1", "z-score", 0.563),
    ("CC(C)(C)N1C(=O)[C@H]2[C@H]3[C@H](O)[C@H](O)CC(=NOC[C@@H](O)COCc4ccco4)[C@H]3CC[C@H]2C1=O", "z-score", 0.0965),
    ("CCOC(=O)CCN1C(=O)[C@H]2[C@H]3[C@H](O)[C@H](O)CC(=NNC(=O)OCc4ccc(OC)cc4)[C@H]3CC[C@H]2C1=O", "z-score", -0.448),
    ("CC(CCN1CCCCc2nc(C)c(C)cc21)=NOC[C@@H](O)[C@H]1O[C@@H]2OC(C)(C)O[C@@H]2[C@H]1O", "z-score", -1.25),
    ("O=C1[C@H]2[C@H]3[C@H](O)[C@H](O)CC(=NOC[C@@H](O)COCc4ccco4)[C@@H]3CC[C@H]2C(=O)N1C1CCCCC1", "z-score", 0.38),
    ("O=C1CCCC=C1C(O)COCc1ccccc1 (stereo unspecified)", "z-score", -0.245),
    ("CC(=O)OC[C@H]1O[C@H](CC=NOC[C@@H](O)COCc2ccco2)C=C[C@@H]1OC(C)=O", "z-score", 0.241),
    ("CCOC(=O)CCN1C(=O)[C@H]2[C@H]3[C@H](O)[C@H](O)CC(=NOCC(C)C)[C@@H]3CC[C@H]2C1=O", "z-score", -0.214),
    ("CC(=O)OC[C@H]1O[C@@H](ON=C(C)CCN2CCCCc3nc(C)c(C)cc32)[C@H](OC(C)=O)[C@@H](OC(C)=O)[C@@H]1OC(C)=O", "z-score", -0.998),
]

Source: PubChem BioAssay
